Reported Population Mitochondria Different-Phenotype (%) by item:
# Test system: Fibroblast
# method.description: Multiplex assay against human fibroblast
# Type: toxicity, cell-based
# run.conditions: 48 h, 1 µM, compound concentration 1 uM, replicate 1
measured.endpoint: Population Mitochondria Different-Phenotype (%)

>  <molecule>
COc1ccc(-c2ccc3ncc4c(c3c2)n(-c2ccc(N3CCNCC3)c(C(F)(F)F)c2)c(=O)n4C)cn1.O=C(O)/C=C\C(=O)O [BGT-226]

>  <experimental.target>
Fibroblast

>  <unit.abbreviation>
%

>  <value.measured>
11

$$$$
>  <molecule>
CCc1nn(CCCN2CCN(c3cccc(Cl)c3)CC2)c(=O)n1CCOc1ccccc1.Cl [NEFAZODONE HYDROCHLORIDE]

>  <experimental.target>
Fibroblast

>  <unit.abbreviation>
%

>  <value.measured>
5

$$$$
>  <molecule>
O=C(c1cc2c(cc1F)OC(c1ccc(F)cc1)(c1ccc(Cl)cc1Cl)O2)N1CCOCC1 (stereo not given)

>  <experimental.target>
Fibroblast

>  <unit.abbreviation>
%

>  <value.measured>
11

$$$$
>  <molecule>
CC(C)NC(=O)N1CC[C@H](NC2=Nc3cc(F)ccc3N(CC(F)F)c3ccc(Cl)cc32)C1

>  <experimental.target>
Fibroblast

>  <unit.abbreviation>
%

>  <value.measured>
2

$$$$
>  <molecule>
CC(C)Oc1ccccc1C(=O)Nc1ccccc1C(=O)Nc1cccc(S(=O)(=O)C(F)(F)F)c1

>  <experimental.target>
Fibroblast

>  <unit.abbreviation>
%

>  <value.measured>
13

$$$$

====

# System: Fibroblast
# method.description: Multiplex assay against human fibroblast
# Format: toxicity, cell-based
# run.conditions: 24 h, 10 µM, compound concentration 10 uM, replicate 1
Reported Population Fragmented Nuclei (%) by item:

>  <compound>
Cc1ccc(C)c(Oc2ccncc2C(=O)N2CCN(C3CC3)c3ccccc32)c1

>  <Population Fragmented Nuclei (%)>
26

$$$$
>  <compound>
Cc1c[nH]c2nccc(Oc3c(F)cc(Nc4cc(Cl)nc(N)n4)cc3F)c12 [BAY-549]

>  <Population Fragmented Nuclei (%)>
44

$$$$
>  <compound>
O=C(c1cc2c(cc1F)OC(c1ccc(F)cc1)(c1ccc(Cl)cc1Cl)O2)N1CCOCC1 (stereo not drawn)

>  <Population Fragmented Nuclei (%)>
32

$$$$
>  <compound>
CC(C)c1noc(N2CCC(COc3ccc(-c4ccc(S(C)(=O)=O)cc4)nc3)CC2)n1 [GSK-1292263]

>  <Population Fragmented Nuclei (%)>
20

$$$$
>  <compound>
COc1ccc(-c2ccc3ncc4c(c3c2)n(-c2ccc(N3CCNCC3)c(C(F)(F)F)c2)c(=O)n4C)cn1.O=C(O)/C=C\C(=O)O [BGT-226]

>  <Population Fragmented Nuclei (%)>
23

$$$$
>  <compound>
O=c1cc(N2CCOCC2)oc2c(-c3cccc4c3sc3ccccc34)cccc12

>  <Population Fragmented Nuclei (%)>
28

$$$$
>  <compound>
CCCSc1nc(N[C@@H]2C[C@H]2c2ccc(F)c(F)c2)c2nnn([C@@H]3C[C@H](OCCO)[C@@H](O)[C@H]3O)c2n1 [TICAGRELOR]

>  <Population Fragmented Nuclei (%)>
27

$$$$
>  <compound>
CC(C)Oc1ccccc1C(=O)Nc1ccccc1C(=O)Nc1cccc(S(=O)(=O)C(F)(F)F)c1

>  <Population Fragmented Nuclei (%)>
40

$$$$

Cited source: ChEMBL document CHEMBL4689842
